Entries and their Kd values follow.
# System: T1, human Granzyme B (human, UniProt P10144 21-247)
# T1 construct: Captured on a Series S Streptavidin chip for SPR; also called hGranzyme B; GzmB
# T1 sequence (P10144 21-247 limits assumed): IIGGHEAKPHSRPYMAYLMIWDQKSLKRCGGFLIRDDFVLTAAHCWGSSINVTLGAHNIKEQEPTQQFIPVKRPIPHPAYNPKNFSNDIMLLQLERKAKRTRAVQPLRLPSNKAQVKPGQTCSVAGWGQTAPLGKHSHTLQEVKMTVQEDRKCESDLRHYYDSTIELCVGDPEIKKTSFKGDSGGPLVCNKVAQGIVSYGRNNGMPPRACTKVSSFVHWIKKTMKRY
# Experiment: SPR, Biacore 8k+, hGranzyme B captured on SA chip, single cycle kinetics, 1:1 model
Bridge positions count the residues as written; N and C are the ends. Square brackets hold non-standard residues; d marks the D form. NOTA‑1 = 1,4,7-triazacyclononane-N,N',N''-triacetic acid phenyl thiourea; Tic = O=C(O)[C@@H]1Cc2ccccc2CN1

{"Binder": "{CH2CO}-FNFEDQSWDTWQPCG-NH2 (thioether N-14; SMILES C[C@@H](O)[C@@H]1NC(=O)[C@H](CC(=O)O)NC(=O)[C@H](Cc2c[nH]c3ccccc23)NC(=O)[C@H](CO)NC(=O)[C@H](CCC(N)=O)NC(=O)[C@H](CC(=O)O)NC(=O)[C@H](CCC(=O)O)NC(=O)[C@H](Cc2ccccc2)NC(=O)[C@H](CC(N)=O)NC(=O)[C@H](Cc2ccccc2)NC(=O)CSC[C@@H](C(=O)NCC(N)=O)NC(=O)[C@@H]2CCCN2C(=O)[C@H](CCC(N)=O)NC(=O)[C@H](Cc2c[nH]c3ccccc23)NC1=O) [Compound 31a]", "Unit Label": "nM", "Kd": 23.3}
{"Binder": "{CH2CO}-FNFEDQSPKTWQPCG-NH2 (thioether N-14; SMILES C[C@@H](O)[C@@H]1NC(=O)[C@H](CCCCN)NC(=O)[C@@H]2CCCN2C(=O)[C@H](CO)NC(=O)[C@H](CCC(N)=O)NC(=O)[C@H](CC(=O)O)NC(=O)[C@H](CCC(=O)O)NC(=O)[C@H](Cc2ccccc2)NC(=O)[C@H](CC(N)=O)NC(=O)[C@H](Cc2ccccc2)NC(=O)CSC[C@@H](C(=O)NCC(N)=O)NC(=O)[C@@H]2CCCN2C(=O)[C@H](CCC(N)=O)NC(=O)[C@H](Cc2c[nH]c3ccccc23)NC1=O) [Compound 58a]", "Unit Label": "nM", "Kd": 5.9}
{"Binder": "{CH2CO}-FNFEDQS[Tic]DTWQPCG-NH2 (thioether N-14; SMILES C[C@@H](O)[C@@H]1NC(=O)[C@H](CC(=O)O)NC(=O)[C@@H]2Cc3ccccc3CN2C(=O)[C@H](CO)NC(=O)[C@H](CCC(N)=O)NC(=O)[C@H](CC(=O)O)NC(=O)[C@H](CCC(=O)O)NC(=O)[C@H](Cc2ccccc2)NC(=O)[C@H](CC(N)=O)NC(=O)[C@H](Cc2ccccc2)NC(=O)CSC[C@@H](C(=O)NCC(N)=O)NC(=O)[C@@H]2CCCN2C(=O)[C@H](CCC(N)=O)NC(=O)[C@H](Cc2c[nH]c3ccccc23)NC1=O) [Compound 64a]", "Unit Label": "nM", "Kd": 8.1}
{"Binder": "{CH2CO}-FNFEDQSPDTWQPCGGK(NOTA‑1)-NH2 (thioether N-14) [Compound 13a]", "Unit Label": "nM", "Kd": 4.4}
{"Binder": "{CH2CO}-FNFEDQSAYTWQPCG-NH2 (thioether N-14; SMILES C[C@@H]1NC(=O)[C@H](CO)NC(=O)[C@H](CCC(N)=O)NC(=O)[C@H](CC(=O)O)NC(=O)[C@H](CCC(=O)O)NC(=O)[C@H](Cc2ccccc2)NC(=O)[C@H](CC(N)=O)NC(=O)[C@H](Cc2ccccc2)NC(=O)CSC[C@@H](C(=O)NCC(N)=O)NC(=O)[C@@H]2CCCN2C(=O)[C@H](CCC(N)=O)NC(=O)[C@H](Cc2c[nH]c3ccccc23)NC(=O)[C@H]([C@@H](C)O)NC(=O)[C@H](Cc2ccc(O)cc2)NC1=O) [Compound 36a]", "Unit Label": "nM", "Kd": 24.2}
{"Binder": "{CH2CO}-FNFEDQSANTWQPCG-NH2 (thioether N-14; SMILES C[C@@H]1NC(=O)[C@H](CO)NC(=O)[C@H](CCC(N)=O)NC(=O)[C@H](CC(=O)O)NC(=O)[C@H](CCC(=O)O)NC(=O)[C@H](Cc2ccccc2)NC(=O)[C@H](CC(N)=O)NC(=O)[C@H](Cc2ccccc2)NC(=O)CSC[C@@H](C(=O)NCC(N)=O)NC(=O)[C@@H]2CCCN2C(=O)[C@H](CCC(N)=O)NC(=O)[C@H](Cc2c[nH]c3ccccc23)NC(=O)[C@H]([C@@H](C)O)NC(=O)[C@H](CC(N)=O)NC1=O) [Compound 81a]", "Unit Label": "nM", "Kd": 43.4}
{"Binder": "{CH2CO}-FNFEDQSAHTWQPCG-NH2 (thioether N-14; SMILES C[C@@H]1NC(=O)[C@H](CO)NC(=O)[C@H](CCC(N)=O)NC(=O)[C@H](CC(=O)O)NC(=O)[C@H](CCC(=O)O)NC(=O)[C@H](Cc2ccccc2)NC(=O)[C@H](CC(N)=O)NC(=O)[C@H](Cc2ccccc2)NC(=O)CSC[C@@H](C(=O)NCC(N)=O)NC(=O)[C@@H]2CCCN2C(=O)[C@H](CCC(N)=O)NC(=O)[C@H](Cc2c[nH]c3ccccc23)NC(=O)[C@H]([C@@H](C)O)NC(=O)[C@H](Cc2c[nH]cn2)NC1=O) [Compound 37a]", "Unit Label": "nM", "Kd": 19.1}
{"Binder": "{CH2CO}-FNFEDQSRDTWQPCG-NH2 (thioether N-14; SMILES C[C@@H](O)[C@@H]1NC(=O)[C@H](CC(=O)O)NC(=O)[C@H](CCCNC(=N)N)NC(=O)[C@H](CO)NC(=O)[C@H](CCC(N)=O)NC(=O)[C@H](CC(=O)O)NC(=O)[C@H](CCC(=O)O)NC(=O)[C@H](Cc2ccccc2)NC(=O)[C@H](CC(N)=O)NC(=O)[C@H](Cc2ccccc2)NC(=O)CSC[C@@H](C(=O)NCC(N)=O)NC(=O)[C@@H]2CCCN2C(=O)[C@H](CCC(N)=O)NC(=O)[C@H](Cc2c[nH]c3ccccc23)NC1=O) [Compound 32a]", "Unit Label": "nM", "Kd": 30.3}
